Provenance of the data: patent US9963452B2

System: HeLa cervical cancer cell line
METHOD_DESCRIPTION: In-vitro cell survival assay (Alamar blue), HeLa
Format: cell-based
DETAILS: Homo sapiens, 24 h, one day after compound addition
ENDPOINT: log10 EC50 (log10 of the value in µM)
Quick note: numbers are log10 of EC50, with µM as the unit.

Quick note, log10 EC50 for Cc1cccc(Nc2nccc(Nc3cccc(C(=O)NCc4ccc(F)cc4)c3)n2)c1 [drawing 379] landed at 1.11

Form field log10 EC50, entry O=C(NCCc1ccccc1)c1cccc(Nc2nccc(Nc3ccc4ncsc4c3)n2)c1 [drawing 418] : 1.18

Lab book: log10 EC50 of CCN(CC)CCNC(=O)c1cccc(Nc2nccc(Nc3ccc4ncsc4c3)n2)c1 [drawing 373] noted as 1.18

Summary for this molecule, CC(C)c1nc(Nc2ccc(C(=O)N3CCN(C)CC3)cc2)nc(Nc2ccc3ncsc3c2)n1 [drawing 458] : log10 EC50 is 1.48

# molecule NC1CCN(C(=O)c2cccc(Nc3ncc(Cl)c(Nc4ccc5ncsc5c4)n3)c2)CC1 [drawing 469] ; its log10 EC50 = 1.30

The molecule listed as Cc1cccc(Nc2nccc(Nc3cccc(C(=O)NCCN4CCOCC4)c3)n2)c1 [drawing 381] has a reported log10 EC50 of 1.63

Consider O=C(c1cccc(Nc2ncc(Cl)c(Nc3ccc4ncsc4c3)n2)c1)N1CCCCC1 [drawing 465] . Its measured log10 EC50 is 0.85

Short answer for CC(C)c1nc(Nc2ccc3ncsc3c2)nc(N2CCCC2)n1 [drawing 451] : log10 EC50 was 1.48

Per the records, this molecule ( CN1CCN(C(=O)c2cccc(Nc3nccc(Nc4ccc5ncsc5c4)n3)c2)CC1 [drawing 415] ) has log10 EC50 equal to 1.04
